# key: entry, value: SOD/pr
system: cerebral oxidative stress induced in mice by doxorubicin; assay: In vivo assay of cerebral oxidative stress induced in mice by doxorubicin; details: % variation relative to the vehicle, healthy animals, 50 mg/kg IP x3 days (D = doxorubicin alone)
Write the number in % without appending the unit.

INSERT INTO results (compound, quantity, readout_value) VALUES
  ('CC1(C)CC(=O)C=C(N(O)Cc2ccccn2)C1', 'SOD/pr', -2.3),
  ('O=C1C=C(NCCN2CCCCC2)CC(c2ccccc2)C1 (stereo not shown)', 'SOD/pr', 1.1),
  ('CC1=NN(c2ccccc2)C(=O)C1 [edaravone, reference compound]', 'SOD/pr', -2.2),
  ('CC1(C)CC(=O)C=C(NCCN2CCCCC2)C1', 'SOD/pr', -5.9),
  ('COc1cccc2c1C(=O)c1c(O)c3c(c(O)c1C2=O)C[C@@](O)(C(=O)CO)C[C@@H]3O[C@H]1C[C@H](N)[C@H](O)[C@H](C)O1 [D, doxorubicin, reference compound]', 'SOD/pr', -14.3);

Ask | Using known records, supply SOD/pr for CC1(C)CC(=O)C=C(NN2CCCCC2)C1
Reply | -10.8

Ask | Using known records, supply SOD/pr for CC1(C)CC(=O)C=C(N(O)Cc2cccnc2)C1
Reply | 0.0

###

# key: entry, value: GPX/pr
tested on: cerebral oxidative stress induced in mice by doxorubicin; experiment: In vivo assay of cerebral oxidative stress induced in mice by doxorubicin; conditions: % variation relative to the vehicle, healthy animals, 50 mg/kg IP x3 days (D = doxorubicin alone)
Please format your answer as a value with the unit trailing.

INSERT INTO assay_data (compound, quantity, readout_value) VALUES
  ('CC1=NN(c2ccccc2)C(=O)C1 [edaravone, reference compound]', 'GPX/pr', '-6.7%'),
  ('CC1(C)CC(=O)C=C(N(O)Cc2ccccn2)C1', 'GPX/pr', '1.5%'),
  ('CC1(C)CC(=O)C=C(N(O)Cc2cccnc2)C1', 'GPX/pr', '0.1%');

Ask | Using known records, supply GPX/pr for COc1cccc2c1C(=O)c1c(O)c3c(c(O)c1C2=O)C[C@@](O)(C(=O)CO)C[C@@H]3O[C@H]1C[C@H](N)[C@H](O)[C@H](C)O1 [D, doxorubicin, reference compound]
Reply | -9.9%

Ask | Using known records, supply GPX/pr for CC1(C)CC(=O)C=C(NCCN2CCCCC2)C1
Reply | -7.6%

Ask | Using known records, supply GPX/pr for O=C1C=C(NCCN2CCCCC2)CC(c2ccccc2)C1 (stereo not shown)
Reply | 2.4%

Ask | Using known records, supply GPX/pr for CC1(C)CC(=O)C=C(NN2CCCCC2)C1
Reply | -8.7%

###

test system: cerebral oxidative stress induced in mice by doxorubicin; assay: In vivo assay of cerebral oxidative stress induced in mice by doxorubicin; details: % inhibition relative to variation due to doxorubicin alone, oxidized animals, as function of its own control
quantity: CAT/pr its own (%)
Write the number in % without appending the unit.

Here's what some known entries look like.
INSERT INTO results (molecule, readout_value) VALUES
  ('CC1(C)CC(=O)C=C(N(O)Cc2cccnc2)C1 [(4)]', -43.2),
  ('CC1(C)CC(=O)C=C(NCCN2CCCCC2)C1 [(1)]', -32.6),
  ('O=C1C=C(NCCN2CCCCC2)CC(c2ccccc2)C1 (stereo not shown) [(3)]', -48.5);

As a next step, examine the molecule that follows.
Ask | Using known records, supply CAT/pr its own for CC1(C)CC(=O)C=C(NN2CCCCC2)C1 [(6)]
Reply | -28.8
